Target: Full length human TBK1 (Homo sapiens (Human))
Test: Inhibition of TBK1 Enzyme (Example A)
Assay type: biochemical
Details: -log(IC50), IC50 molar; 3 nM TBK1, 25 μM ATP, 60 min RT; read-out: TBK1 Inhibition (pIC50) (converted)
readoutName: IC50 (nM)

[[record]]
compound = "N#Cc1ncc(-c2cnc(NC(=O)C3CC3)cn2)cc1NCC(=O)N1CCOC[C@@H]1C(F)(F)F"
observedresult = 200

[[record]]
compound = "CC[C@H](Nc1cc(-c2cnc(NC(=O)C3CC(C)(O)C3)cn2)cnc1C#N)C(=O)N(C)C (stereo partly shown)"
observedresult = 398

[[record]]
compound = "N#Cc1ncc(-c2cnc(NC(=O)C3CC3)cn2)cc1NCC(=O)N1CCO[C@@H]1C(F)(F)F"
observedresult = 631

[[record]]
compound = "N#Cc1ncc(-c2cnc(NC(=O)C3CC3)cn2)cc1NCC(=O)N1CCO[C@H]1C(F)(F)F"
observedresult = 15.8


###

Recorded TBK1 Inhibition (pIC50) for the following compounds
Target: Full length human TBK1 (Homo sapiens (Human), UniProt Q9UHD2)
Sequence (Q9UHD2 whole entry): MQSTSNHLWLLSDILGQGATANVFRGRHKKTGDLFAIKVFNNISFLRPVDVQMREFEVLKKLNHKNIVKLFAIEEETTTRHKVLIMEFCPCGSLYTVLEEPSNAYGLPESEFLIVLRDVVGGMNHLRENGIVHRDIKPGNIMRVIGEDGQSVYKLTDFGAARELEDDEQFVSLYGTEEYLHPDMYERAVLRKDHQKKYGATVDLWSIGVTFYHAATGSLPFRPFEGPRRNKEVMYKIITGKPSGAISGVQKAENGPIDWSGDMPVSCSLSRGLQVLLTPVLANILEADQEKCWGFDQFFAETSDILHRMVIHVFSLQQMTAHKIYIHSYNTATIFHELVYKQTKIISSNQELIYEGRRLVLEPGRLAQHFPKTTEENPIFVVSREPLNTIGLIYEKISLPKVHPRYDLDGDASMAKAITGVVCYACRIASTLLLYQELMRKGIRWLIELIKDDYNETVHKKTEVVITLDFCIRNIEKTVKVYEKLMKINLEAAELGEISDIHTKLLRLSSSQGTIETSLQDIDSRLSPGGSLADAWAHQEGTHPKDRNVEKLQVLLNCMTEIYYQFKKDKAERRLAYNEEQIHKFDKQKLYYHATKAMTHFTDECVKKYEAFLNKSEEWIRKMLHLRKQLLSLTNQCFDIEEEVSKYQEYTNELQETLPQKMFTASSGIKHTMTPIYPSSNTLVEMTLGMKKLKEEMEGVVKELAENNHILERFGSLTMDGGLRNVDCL
Test: Inhibition of TBK1 Enzyme (Example A)
Type: biochemical
Conditions: -log(IC50), IC50 molar; 3 nM TBK1, 25 μM ATP, 60 min RT
readoutName: TBK1 Inhibition (pIC50)

[[record]]
compound = "CN(CC(F)(F)F)C(=O)CNc1cc(-c2cnc(NC(=O)C3CC3)cn2)ccc1C#N"
observedresult = 7.6

[[record]]
compound = "C[C@H](Nc1cc(-c2cnc(NC(=O)C3CC3)cn2)ccc1C#N)C(=O)N(C)CCO"
observedresult = 7.7

[[record]]
compound = "CN(C)C(=O)C(CCO)Nc1cc(-c2cnc(NC(=O)C3CC3)cn2)ccc1C#N (centres unmarked)"
observedresult = 6.9

[[record]]
compound = "C[C@H](Nc1cc(-c2cnc(NC(=O)C3CC3)cn2)cnc1C#N)C(=O)N(C)CC#N"
observedresult = 7.9

[[record]]
compound = "CN(C)C(=O)C(CO)Nc1cc(-c2cnc(NC(=O)C3CC3)cn2)cnc1C#N (centres unmarked)"
observedresult = 7.1

[[record]]
compound = "N#Cc1ncc(-c2cnc(NC(=O)C3CC3)cn2)cc1NCC(=O)N1CCOC(C(F)(F)F)C1 (centres unmarked)"
observedresult = 6.5

[[record]]
compound = "CC(=O)N1CCN(C(=O)CNc2cc(-c3cnc(NC(=O)C4CC4)cn3)cnc2C#N)CC1"
observedresult = 6.0

[[record]]
compound = "CC(C)(O)CN(CC(F)(F)F)C(=O)CNc1cc(-c2cnc(NC(=O)C3CC3)cn2)cnc1C#N"
observedresult = 6.6

[[record]]
compound = "N#Cc1ncc(-c2cnc(NC(=O)C3CC3)cn2)cc1NCC(=O)N1CCC[C@@H]1C#N"
observedresult = 7.5

[[record]]
compound = "CN(C)C(=O)[C@@H](CC(F)F)Nc1cc(-c2cnc(NC(=O)C3CC3)cn2)ccc1C#N"
observedresult = 5.9

[[record]]
compound = "CN(CC#N)C(=O)CNc1cc(-c2cnc(NC(=O)C3CC3)cn2)cnc1C#N"
observedresult = 7.2

[[record]]
compound = "CC[C@H](Nc1cc(-c2cnc(NC(=O)C3CC3)cn2)ccc1C#N)C(=O)N(C)C"
observedresult = 7.7

[[record]]
compound = "CC(NC(=O)[C@H](C)Nc1cc(-c2cnc(NC(=O)C3CC3)cn2)cnc1C#N)C(F)F (some centres unmarked)"
observedresult = 8.1

[[record]]
compound = "C[C@H](Nc1cc(-c2cnc(NC(=O)C3CC3)cn2)cnc1C#N)C(=O)N1CCO[C@H]1C(F)(F)F"
observedresult = 6.0

[[record]]
compound = "CN(C)C(=O)[C@H](CO)Nc1cc(-c2cnc(NC(=O)C3CC3)cn2)ccc1C#N"
observedresult = 7.6

[[record]]
compound = "C[C@H](Nc1cc(-c2cnc(NC(=O)[C@@H]3C[C@@H]3C)cn2)cnc1C#N)C(=O)N(C)C"
observedresult = 7.7

[[record]]
compound = "CN(C)C(=O)CNc1cc(-c2cnc(NC(=O)C3CC3)cn2)cnc1C#N"
observedresult = 7.0

[[record]]
compound = "CCC(Nc1cc(-c2cnc(NC(=O)C3CC3)cn2)ccc1C#N)C(=O)N(C)C (centres unmarked)"
observedresult = 8.1

[[record]]
compound = "N#Cc1ncc(-c2cnc(NC(=O)C3CC3)cn2)cc1NCC(=O)N1CCS(=O)(=O)C1"
observedresult = 7.0

[[record]]
compound = "CC(Nc1cc(-c2cnc(NC(=O)C3CC3)cn2)cnc1C#N)C(=O)N(C)CC#N (centres unmarked)"
observedresult = 7.7

[[record]]
compound = "CN(CCF)C(=O)C(CC(F)F)Nc1cc(-c2cnc(NC(=O)C3CC3)cn2)cnc1C#N (centres unmarked)"
observedresult = 7.1

[[record]]
compound = "C[C@H](Nc1cc(-c2cnc(NC(=O)C3CC3)cn2)ccc1C#N)C(=O)N1CCCC1"
observedresult = 7.3

[[record]]
compound = "CN(C)C(=O)C(CC(F)F)Nc1cc(-c2cnc(NC(=O)C3CC3)cn2)cnc1C#N (centres unmarked)"
observedresult = 7.4

[[record]]
compound = "CCNC(=O)CNc1cc(-c2cnc(NC(=O)C3CC3)cn2)ccc1C#N"
observedresult = 6.5

[[record]]
compound = "CC[C@H](Nc1cc(-c2cnc(NC(=O)C3CC3)cn2)cnc1C#N)C(=O)N(C)CCF"
observedresult = 7.7

[[record]]
compound = "CC(Nc1cc(-c2cnc(NC(=O)C3CC3)cn2)cnc1C#N)C(=O)N(C)CCF (centres unmarked)"
observedresult = 7.7

[[record]]
compound = "CC(C)NC(=O)[C@H](C)Nc1cc(-c2cnc(NC(=O)C3CC3)cn2)ccc1C#N"
observedresult = 6.9

[[record]]
compound = "C[C@H](Nc1cc(-c2cnc(NC(=O)C3CC3)cn2)cnc1C#N)C(=O)NCC(F)(F)F"
observedresult = 7.3

[[record]]
compound = "CC[C@H](Nc1cc(-c2cnc(NC(=O)C3CC3)cn2)cnc1C#N)C(=O)N(C)CC#N"
observedresult = 7.4

[[record]]
compound = "CN(C)C(=O)C(CCO)Nc1cc(-c2cnc(NC(=O)C3CC3)cn2)cnc1C#N (centres unmarked)"
observedresult = 6.9

[[record]]
compound = "CC(C#N)N(C)C(=O)[C@H](C)Nc1cc(-c2cnc(NC(=O)C3CC3)cn2)cnc1C#N (some centres unmarked)"
observedresult = 7.7

[[record]]
compound = "CC[C@@H](Nc1cc(-c2cnc(NC(=O)C3CC3)cn2)cnc1C#N)C(=O)N(C)C"
observedresult = 6.3


###

Measured TBK1 Inhibition (pIC50) accompanies every entry in the list below.
Biological target: Full length human TBK1 (Homo sapiens (Human), UniProt Q9UHD2)
Assay: Inhibition of TBK1 Enzyme (Example A)
Type: biochemical
Details: -log(IC50), IC50 molar; 3 nM TBK1, 25 μM ATP, 60 min RT
readoutName: TBK1 Inhibition (pIC50)

[[record]]
structurenotation = "COCCN(CC(F)F)C(=O)CNc1cc(-c2cnc(NC(=O)C3CC3)cn2)cnc1C#N"
observedresult = 7.8

[[record]]
structurenotation = "COCC[C@H](Nc1cc(-c2cnc(NC(=O)C3CC3)cn2)ccc1C#N)C(=O)N(C)C"
observedresult = 8.2

[[record]]
structurenotation = "C[C@H](Nc1cc(-c2cnc(NC(=O)C3CC3)cn2)cnc1C#N)C(=O)N(C)CC1CC1"
observedresult = 7.0

[[record]]
structurenotation = "CN(C)C(=O)[C@H](CC(F)F)Nc1cc(-c2cnc(NC(=O)C3CC3)cn2)ccc1C#N"
observedresult = 8.2


###

Biological target: Full length human TBK1 (Homo sapiens (Human), UniProt Q9UHD2)
Test: Inhibition of TBK1 Enzyme (Example A)
Format: biochemical
Settings: -log(IC50), IC50 molar; 3 nM TBK1, 25 μM ATP, 60 min RT
Reported TBK1 Inhibition (pIC50) is given for each of the following molecules.
readoutName: TBK1 Inhibition (pIC50)

[[record]]
molecule = "COC1CN(C(=O)[C@H](C)Nc2cc(-c3cnc(NC(=O)C4CC4)cn3)ccc2C#N)C1"
observedresult = 6.3

[[record]]
molecule = "N#Cc1ncc(-c2cnc(NC(=O)C3CC3)cn2)cc1NCC(=O)N1CCOCC1C#N (centres unmarked)"
observedresult = 7.2

[[record]]
molecule = "N#Cc1ccc(-c2cnc(NC(=O)C3CC3)cn2)cc1NCC(=O)N1CCC1"
observedresult = 6.6

[[record]]
molecule = "CN(C)C(=O)C(CO)Nc1cc(-c2cnc(NC(=O)C3CC3)cn2)ccc1C#N (centres unmarked)"
observedresult = 7.5

[[record]]
molecule = "CN(C)C(=O)C(CC#N)Nc1cc(-c2cnc(NC(=O)C3CC3)cn2)cnc1C#N (centres unmarked)"
observedresult = 6.2

[[record]]
molecule = "CC(Nc1cc(-c2cnc(NC(=O)C3CC3)cn2)cnc1C#N)C(=O)N(C)CC(F)(F)F (centres unmarked)"
observedresult = 7.8

[[record]]
molecule = "C[C@H](Nc1cc(-c2cnc(NC(=O)C3CC3)cn2)cnc1C#N)C(=O)N(C)CCN(C)C"
observedresult = 6.3

[[record]]
molecule = "CC[C@H](Nc1cc(-c2cnc(NC(=O)C3CC3)cn2)ncc1C#N)C(=O)N(C)C"
observedresult = 7.0

[[record]]
molecule = "CC(C#N)NC(=O)[C@H](C)Nc1cc(-c2cnc(NC(=O)C3CC3)cn2)cnc1C#N (some centres unmarked)"
observedresult = 6.6

[[record]]
molecule = "CCC(Nc1cc(-c2cnc(NC(=O)C3CC3)cn2)cnc1C#N)C(=O)N(C)C1CC1 (centres unmarked)"
observedresult = 7.3

[[record]]
molecule = "C[C@H](Nc1cc(-c2cnc(NC(=O)C3CC3)cn2)cnc1C#N)C(=O)N(C)c1cccnc1"
observedresult = 5.5

[[record]]
molecule = "C[C@H](Nc1cc(-c2cnc(NC(=O)C3CC3)cn2)cnc1C#N)C(=O)N(CCO)CC(F)F"
observedresult = 6.8

[[record]]
molecule = "N#Cc1ncc(-c2cnc(NC(=O)C3CC3)cn2)cc1NCC(=O)N1CCCC1CF (centres unmarked)"
observedresult = 7.0

[[record]]
molecule = "CC1CC1C(=O)Nc1cnc(-c2ccc(C#N)c(NCC(=O)N(C)C)c2)cn1 (centres unmarked)"
observedresult = 7.1

[[record]]
molecule = "COCCNC(=O)[C@H](C)Nc1cc(-c2cnc(NC(=O)C3CC3)cn2)ccc1C#N"
observedresult = 5.8

[[record]]
molecule = "N#Cc1ccc(-c2cnc(NC(=O)C3CC3)cn2)cc1NCC(=O)N1CCCC1"
observedresult = 7.3

[[record]]
molecule = "C[C@H](Nc1cc(-c2cnc(NC(=O)C3CC3)cn2)ccc1C#N)C(=O)N(C)C"
observedresult = 8.1

[[record]]
molecule = "CN(C)C(=O)C(CC(F)(F)F)Nc1cc(-c2cnc(NC(=O)C3CC3)cn2)cnc1C#N (centres unmarked)"
observedresult = 6.2

[[record]]
molecule = "N#Cc1ccc(-c2cnc(NC(=O)C3CC3)cn2)cc1NCC(=O)N1CCC(O)C1 (centres unmarked)"
observedresult = 6.9

[[record]]
molecule = "COCCN1CCN(C(=O)CNc2cc(-c3cnc(NC(=O)C4CC4)cn3)cnc2C#N)CC1"
observedresult = 5.1

[[record]]
molecule = "CN(C)C(=O)[C@H](CO)Nc1cc(-c2cnc(NC(=O)C3CC3)cn2)cnc1C#N"
observedresult = 7.2

[[record]]
molecule = "C[C@H](Nc1cc(-c2cnc(NC(=O)C3CC3)cn2)cnc1C#N)C(=O)N1CCOC[C@@H]1C#N"
observedresult = 7.8

[[record]]
molecule = "C[C@H](Nc1cc(-c2cnc(NC(=O)C3CC3)cn2)ccc1C#N)C(=O)N1CC(O)C1"
observedresult = 6.7

[[record]]
molecule = "COCC[C@H](Nc1cc(-c2cnc(NC(=O)C3CC3)cn2)cnc1C#N)C(=O)N(C)C"
observedresult = 7.1

[[record]]
molecule = "C[C@H](Nc1cc(-c2cnc(NC(=O)C3CC3)cn2)cnc1C#N)C(=O)N(CC#N)CCO"
observedresult = 6.8

[[record]]
molecule = "C[C@H](Nc1cc(-c2cnc(NC(=O)C3CC3)cn2)cnc1C#N)C(=O)N(C)[C@@H](C)C#N"
observedresult = 7.9

[[record]]
molecule = "CN1CC(N(C)C(=O)CNc2cc(-c3cnc(NC(=O)C4CC4)cn3)cnc2C#N)C1"
observedresult = 5.6

[[record]]
molecule = "C[C@H](Nc1cc(-c2cnc(NC(=O)C3CC3)cn2)cnc1C#N)C(=O)NC1CC1(F)F (some centres unmarked)"
observedresult = 6.8

[[record]]
molecule = "N#Cc1ncc(-c2cnc(NC(=O)C3CC3)cn2)cc1NCC(=O)N(CCO)CC(F)F"
observedresult = 7.8

[[record]]
molecule = "C[C@H](Nc1cc(-c2cnc(NC(=O)C3CC3)cn2)cnc1C#N)C(=O)N(C)C"
observedresult = 7.6

[[record]]
molecule = "CC(Nc1cc(-c2cnc(NC(=O)C3CC3)cn2)cnc1C#N)C(=O)N(C)CC(F)F (centres unmarked)"
observedresult = 8.0

[[record]]
molecule = "COCC[C@H](Nc1cc(-c2cnc(NC(=O)C3CC3)cn2)cnc1C#N)C(=O)N(C)CCO"
observedresult = 6.5

